# credit: paper PMC8605023

target: T1, Radixin FERM domain (human, UniProt P35241 5-295); details: both partners purified
T1 construct: also called RDX; RDX FERM
T1 sequence (P35241 5-295): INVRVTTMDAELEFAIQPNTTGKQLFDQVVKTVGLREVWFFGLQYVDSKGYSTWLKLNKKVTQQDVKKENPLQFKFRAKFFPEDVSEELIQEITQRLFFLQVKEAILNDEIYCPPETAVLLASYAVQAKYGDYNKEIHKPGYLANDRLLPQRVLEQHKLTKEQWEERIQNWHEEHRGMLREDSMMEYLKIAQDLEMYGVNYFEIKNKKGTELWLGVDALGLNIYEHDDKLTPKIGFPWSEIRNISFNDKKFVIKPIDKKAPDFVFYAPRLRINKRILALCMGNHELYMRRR
Ends that are not written are not given here. * marks the point of attachment. FITC = O=C1OC2(c3ccc(O)cc3Oc3cc(O)ccc32)c2ccc(NC(=S)*)cc21
measurementName: pKd
Keep in mind that pKd stands for -log10 of concentration in molar terms.

Item: {FITC}-YYSVNTFKEHHSTPTI (also called Kirrel probe peptide) [Kirrel FITC-YYSVNTFKEHHSTPTI] | pKd: 6.31
